Reported TGI values follow for various molecules
# Test system: 786-0 renal
# experiment: NCI tumour cell line growth inhibition, 48 h

These recorded examples may help you get a feel for the data.
>>> print(df.to_string())
                                   molecule  observed
0  CC(C)(NC(=O)OCc1ccccc1)C(=O)OC(=O)C(C)(C)NC(=O)OCc1ccccc1  > 100 µM
1  Cc1c2c(n(CC(c3ccccc3)c3ccccc3)c1C)NN=C(C#N)S2(=O)=O  > 100 µM
2  Cn1cc(C(=O)c2ccccc2)cc(C(=O)c2ccccc2)c1=O  > 100 µM

GET /values?item= N#Cc1cccc(C=NC23CC4CC(CC(C4)C2)C3)c1 &system= 786-0 renal returns TGI: > 100 µM

TGI of [N-]=[N+]=CC(=O)OCCCCl , assay on 786-0 renal, is > 100 µM

Sample Cc1cccc(CC(Cc2ccc(C)cc2C(=O)O)C(=O)O)c1 (configuration not stated) , system: 786-0 renal. Its TGI is > 100 µM

With 786-0 renal as the test system, O=Cc1ccc(-c2ccc(-c3nc4ccccc4s3)cc2)s1 showed TGI of > 100 µM

Param item: OCCN(CCO)c1cccc(N(CCO)CCO)n1 ; param system: 786-0 renal; output TGI: > 100 µM

TGI for 786-0 renal with input N/C1=C/C(=O)NC(=O)c2c(c3ccccc3oc2=O)C1 equals > 100 µM

Query Cc1ccc(S(=O)(=O)N/N=C/C(C)C)cc1 on 786-0 renal; TGI returned: > 100 µM

Measured TGI for this entry OC1(c2ccc(Cl)cc2)c2ccccc2-c2nc3ccccc3n21 (configuration not stated) on 786-0 renal: > 100 µM

Observed TGI, 786-0 renal, Cc1nc2cc(Nc3ccccc3C(=O)O)ccc2s1 : > 100 µM
